# tested target: T1, Human CD137 ECD (human)
# T1 construct: entry includes C-terminal His-tag and biotin acceptor peptide; also called human CD137 extracellular domain; 4-1BB
# T1 sequence (chain, as listed by the source limits assumed): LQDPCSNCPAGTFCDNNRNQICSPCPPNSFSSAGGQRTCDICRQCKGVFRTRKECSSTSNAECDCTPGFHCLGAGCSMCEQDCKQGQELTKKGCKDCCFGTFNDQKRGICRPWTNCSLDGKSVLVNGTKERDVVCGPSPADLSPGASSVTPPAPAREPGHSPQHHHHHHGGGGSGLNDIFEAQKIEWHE
# assay summary: Biacore SPR, vs parent H183/L072
Collected fold change of affinity values appear next to each entry.
Entry rule: numbers only, all in fold.

>  <binder>
H183/L072 VL S93F (antibody, name in Kabat numbering, V domains shown, Dual-Ig) VH: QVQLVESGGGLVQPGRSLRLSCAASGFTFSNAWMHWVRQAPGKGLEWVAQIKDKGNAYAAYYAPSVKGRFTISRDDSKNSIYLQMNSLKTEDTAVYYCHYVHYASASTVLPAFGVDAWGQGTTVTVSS VL: DIVMTQSPLSLPVTPGEPASISCQASQELVHMNRNTYLHWYQQKPGQAPRLLIYKVSNRFPGVPDRFSGSGSGTDFTLKISRVEAEDVGVYYCAQGTFVPFTFGQGTKLEIK

>  <unit tag>
fold

>  <measured number>
1

$$$$
>  <binder>
H183/L072 VL N53V (antibody, name in Kabat numbering, V domains shown, Dual-Ig) VH: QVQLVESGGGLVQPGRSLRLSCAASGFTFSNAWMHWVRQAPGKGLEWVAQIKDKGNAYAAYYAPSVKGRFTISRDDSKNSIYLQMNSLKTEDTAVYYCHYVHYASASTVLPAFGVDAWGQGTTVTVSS VL: DIVMTQSPLSLPVTPGEPASISCQASQELVHMNRNTYLHWYQQKPGQAPRLLIYKVSVRFPGVPDRFSGSGSGTDFTLKISRVEAEDVGVYYCAQGTSVPFTFGQGTKLEIK

>  <unit tag>
fold

>  <measured number>
0.5

$$$$
>  <binder>
H183/L072 VL R54F (antibody, name in Kabat numbering, V domains shown, Dual-Ig) VH: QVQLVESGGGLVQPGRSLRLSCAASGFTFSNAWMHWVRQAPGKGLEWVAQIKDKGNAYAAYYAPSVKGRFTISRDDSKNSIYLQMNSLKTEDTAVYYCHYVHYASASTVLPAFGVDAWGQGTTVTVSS VL: DIVMTQSPLSLPVTPGEPASISCQASQELVHMNRNTYLHWYQQKPGQAPRLLIYKVSNFFPGVPDRFSGSGSGTDFTLKISRVEAEDVGVYYCAQGTSVPFTFGQGTKLEIK

>  <unit tag>
fold

>  <measured number>
0.3

$$$$
>  <binder>
H183/L072 VL N30S (antibody, name in Kabat numbering, V domains shown, Dual-Ig) VH: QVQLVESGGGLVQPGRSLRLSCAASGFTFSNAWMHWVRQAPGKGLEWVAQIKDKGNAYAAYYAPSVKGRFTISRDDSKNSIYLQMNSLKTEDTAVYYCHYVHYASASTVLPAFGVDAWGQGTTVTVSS VL: DIVMTQSPLSLPVTPGEPASISCQASQELVHMNRSTYLHWYQQKPGQAPRLLIYKVSNRFPGVPDRFSGSGSGTDFTLKISRVEAEDVGVYYCAQGTSVPFTFGQGTKLEIK

>  <unit tag>
fold

>  <measured number>
0.2

$$$$

Entry H183/L072 VL N30L (antibody, name in Kabat numbering, V domains shown, Dual-Ig) VH: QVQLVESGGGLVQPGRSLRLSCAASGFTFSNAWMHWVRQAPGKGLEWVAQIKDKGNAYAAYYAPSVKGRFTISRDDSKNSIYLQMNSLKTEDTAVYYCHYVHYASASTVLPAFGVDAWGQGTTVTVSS VL: DIVMTQSPLSLPVTPGEPASISCQASQELVHMNRLTYLHWYQQKPGQAPRLLIYKVSNRFPGVPDRFSGSGSGTDFTLKISRVEAEDVGVYYCAQGTSVPFTFGQGTKLEIK has what fold change of affinity?
0.3
